biological target: T1, hIL-1RAP(1-367)_F-chLys_Avi (human, biotinylated (Avi tag) in SPR and ELISA binning; unlabeled in SET); experiment: solution equilibrium titration (SET), ECL read-out, IgG
T1 construct: also called human IL-1RAcP (AG-12210)
measurement_type: Kd (pM)

INSERT INTO measurements (binder, measurement_type, readout_value) VALUES
  ('Y024149_h_IgG1f_AEASS (antibody, V domains shown, Human IgG1f with AEASS effector-silencing residues, kappa light chain) VH: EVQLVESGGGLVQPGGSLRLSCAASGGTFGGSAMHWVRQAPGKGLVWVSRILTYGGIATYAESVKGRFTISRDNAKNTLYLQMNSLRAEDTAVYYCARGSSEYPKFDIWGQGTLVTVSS VL: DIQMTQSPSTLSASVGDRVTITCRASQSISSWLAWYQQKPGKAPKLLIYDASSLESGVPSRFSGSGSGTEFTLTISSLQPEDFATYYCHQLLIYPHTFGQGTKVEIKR', 'Kd', 3),
  ('Y024084_h_IgG1f_AEASS (antibody, V domains shown, also called Morphosys 24084; Mor Y024084) VH: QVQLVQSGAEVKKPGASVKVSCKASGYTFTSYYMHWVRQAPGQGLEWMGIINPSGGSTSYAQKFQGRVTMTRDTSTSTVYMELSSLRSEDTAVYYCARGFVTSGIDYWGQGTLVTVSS VL: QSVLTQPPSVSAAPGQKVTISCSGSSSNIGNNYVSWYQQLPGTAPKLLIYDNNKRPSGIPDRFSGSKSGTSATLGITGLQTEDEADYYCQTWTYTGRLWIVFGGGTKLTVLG', 'Kd', 4),
  ('h11C5 YKD (antibody, human IgG1, kappa, V domains shown, Variable domains of h11C5 YKD on the same modified IgG1 kappa constant regions (AEASS); Printed as ''h1105'' in much of the text; also called h1105) VH: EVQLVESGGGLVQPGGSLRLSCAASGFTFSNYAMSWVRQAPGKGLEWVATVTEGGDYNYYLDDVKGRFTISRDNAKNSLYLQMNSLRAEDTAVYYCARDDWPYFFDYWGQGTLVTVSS VL: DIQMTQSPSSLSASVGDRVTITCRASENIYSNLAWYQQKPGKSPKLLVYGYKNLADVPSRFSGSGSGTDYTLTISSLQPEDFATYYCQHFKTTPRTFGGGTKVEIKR', 'Kd', 3);

Values were extracted from patent US20220411517A1.
